- tested target: T1, recombinant human LILRB2-His (human, UniProt Q8N423 22-461, limits assumed)
- T1 construct: Bought protein; also called LILRB2 protein
- T1 sequence (Q8N423 22-461 limits assumed): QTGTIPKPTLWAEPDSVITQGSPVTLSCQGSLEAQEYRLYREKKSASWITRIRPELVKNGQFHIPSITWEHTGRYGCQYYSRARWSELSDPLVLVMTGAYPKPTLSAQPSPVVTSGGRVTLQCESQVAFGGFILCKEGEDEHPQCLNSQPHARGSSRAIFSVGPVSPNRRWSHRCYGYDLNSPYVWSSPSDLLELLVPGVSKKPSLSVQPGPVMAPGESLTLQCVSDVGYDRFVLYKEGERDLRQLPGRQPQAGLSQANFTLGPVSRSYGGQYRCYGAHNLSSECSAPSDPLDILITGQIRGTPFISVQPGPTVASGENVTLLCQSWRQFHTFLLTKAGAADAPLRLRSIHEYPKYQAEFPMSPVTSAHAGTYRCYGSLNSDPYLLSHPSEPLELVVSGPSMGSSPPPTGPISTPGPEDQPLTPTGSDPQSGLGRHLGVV
- experimental protocol: MSD ELISA, coated antigen, transfection supernatant
Reported EC50 by item:
Respond numerically; units are ng/mL and should not be typed.

Record excerpt, results attached:
binder	recorded metric	reported
B21H4-31 (antibody, human IgG4 S228P, kappa, V domains shown, humanized IgG4/kappa, VH3+VL1; transfection supernatant) VH: EVQLVESGGDLAQPGGSLRLSCAVSGFSLNTYAMTWVRQAPGKGLEWVSIIVASGGTYYASWAKGRFTISRDNSKNTVYLQMTSLRAEDTALYFCARGGMGSDWGESLDAFDPWGQGTLVTVSS VL: DIQMTQSPSTLSASVGDRVTITCQASGNIYSFLAWYQQKPGKAPKLLIYTASNLETGVPSRFSGSGSGTEYTLTISSLQPDDFATYYCLGGLYSSDVSYAFGPGTKVEIKR	EC50	2.02
B21H4-54 (antibody, human IgG4 S228P, kappa, V domains shown, humanized IgG4/kappa, VH5+VL4; transfection supernatant) VH: QVQLEESGGRLVQPGTSLRLSCAVSGFSLNTYAMTWVRQAPGKGLEWIGIIVASGGTYYASWAKGRFTISRDTSKNTLYLQITSLRAEDTATYFCARGGMGSDWGESLDAFDPWGQGTLVTVSS VL: DVVMTQSPSTVSASVGDRVTLTCQASGNIYSFLAWYQQKPGQPPKLLIYTASNLETGVPDRFSGSGSGTDYTLTISSLQADDFATYYCLGGLYSSDVSYAFGQGTKVEIKR	EC50	2.75
B21H4-53 (antibody, human IgG4 S228P, kappa, V domains shown, humanized IgG4/kappa, VH5+VL3; transfection supernatant) VH: QVQLEESGGRLVQPGTSLRLSCAVSGFSLNTYAMTWVRQAPGKGLEWIGIIVASGGTYYASWAKGRFTISRDTSKNTLYLQITSLRAEDTATYFCARGGMGSDWGESLDAFDPWGQGTLVTVSS VL: DIVMTQSPSSVSASVGDRVTITCQASGNIYSFLAWYQQKPGKAPKLLIYTASNLETGVPSRFSGSGSGTDFTLTISSLQPEDFATYYCLGGLYSSDVSYAFGGGTKVVIKR	EC50	1.67

Task: # EC50 lookup, item B21H4-35 (antibody, human IgG4 S228P, kappa, V domains shown, humanized IgG4/kappa, VH3+VL5; transfection supernatant) VH: EVQLVESGGDLAQPGGSLRLSCAVSGFSLNTYAMTWVRQAPGKGLEWVSIIVASGGTYYASWAKGRFTISRDNSKNTVYLQMTSLRAEDTALYFCARGGMGSDWGESLDAFDPWGQGTLVTVSS VL: DIQMTQTPSTVEASVGGTVTITCQASGNIYSFLAWYQQKPGQPPKLLIYTASNLETGVPSRFSGSGSGTEYTLTISGLQSDDAATYYCLGGLYSSDVSYAFGGGTEVVVKR
Result: 1.73
